As shown below, each of these sequences has a reported IC50 value.
TESTED_ON: HLA-B*35:01
MEASUREMENT_NOTES: IEDB peptide-MHC binding, purified MHC/competitive/radioactivity; bounds were set here for any values at or beyond the usual limits of such assays
CONDITION_PARAMETERS: source organism: Bordetella pertussis
Respond numerically; units are µM and should not be typed.

Return reported IC50. Input sequence: VAMKPYEVT 69.9

For the sequence EATQQAAGF , report IC50. 41.1

Give a short answer stating reported IC50 for QITQHGSPY . 34.5

Read off the recorded IC50 for HAQGKALLY 0.385

Give IC50 for QITQHGGPY 44

State, in one line, measured IC50 of LVFSHVRGM 19.8

---

IC50 values, listed per item
TESTED_ON: HLA-B*44:03
MEASUREMENT_NOTES: IEDB peptide-MHC binding, purified MHC/competitive/radioactivity; bounds were set here for any values at or beyond the usual limits of such assays
CONDITION_PARAMETERS: source organism: Bordetella pertussis

Please look at PGPTTDYST and tell me its recorded IC50 on HLA-B*44:03. ≥ 78.2 µM

Write down the reported IC50 (system: HLA-B*44:03) of TVQELALKL 12.5 µM

Here's the next entry for you.
# lookup: HLA-B*44:03 IC50, key = VAVAGGRWH ≥ 78.2 µM

---

TESTED_ON: HLA-B*07:02
MEASUREMENT_NOTES: IEDB peptide-MHC binding, purified MHC/competitive/radioactivity; bounds were set here for any values at or beyond the usual limits of such assays
CONDITION_PARAMETERS: source organism: Bordetella pertussis
PROPERTY_LABEL: IC50
Remember to follow the number with its unit.

Using the record for AALGRGHSL , state its measured IC50. 19.6 µM

---

TESTED_ON: HLA-B*53:01
MEASUREMENT_NOTES: IEDB peptide-MHC binding, purified MHC/competitive/radioactivity; bounds were set here for any values at or beyond the usual limits of such assays
CONDITION_PARAMETERS: source organism: Bordetella pertussis
PROPERTY_LABEL: IC50
# do not omit the unit; it follows the number

Solved cases (2 shown):
Output IC50 of GYEAGFSLG 26 µM

State its IC50 for this sequence: HADDGTIVI 69.9 µM

Continuing:
Retrieve IC50 measured for LASDGSVDF and print it. 23.1 µM

Entry source: the Immune Epitope Database (IEDB)
